This collection of values is drawn from ChEMBL document CHEMBL2163264.

system.under.test: UniProt:P08659
Sequence (P08659 whole entry): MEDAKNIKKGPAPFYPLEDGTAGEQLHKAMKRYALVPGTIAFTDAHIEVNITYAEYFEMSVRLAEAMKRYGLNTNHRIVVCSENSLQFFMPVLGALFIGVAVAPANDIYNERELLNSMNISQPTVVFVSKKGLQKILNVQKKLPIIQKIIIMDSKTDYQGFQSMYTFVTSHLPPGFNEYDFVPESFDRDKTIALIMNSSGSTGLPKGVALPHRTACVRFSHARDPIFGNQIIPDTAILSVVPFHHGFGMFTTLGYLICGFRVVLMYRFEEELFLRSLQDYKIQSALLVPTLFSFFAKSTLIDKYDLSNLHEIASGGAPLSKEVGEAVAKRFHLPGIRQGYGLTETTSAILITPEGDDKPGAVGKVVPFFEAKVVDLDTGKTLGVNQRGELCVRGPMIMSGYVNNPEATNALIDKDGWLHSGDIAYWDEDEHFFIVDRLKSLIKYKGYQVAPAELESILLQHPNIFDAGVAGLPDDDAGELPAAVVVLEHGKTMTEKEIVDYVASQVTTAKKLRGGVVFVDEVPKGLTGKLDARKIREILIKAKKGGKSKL
Could you mark each record TRUE if its IC50 falls strictly under 2000 nM, and FALSE if it equals or exceeds it?

Take the compound C=CCn1ccc2c(Oc3ccc(N)cc3)ncnc21 and say whether its IC50 is less than 2000 nM.
FALSE

Take the compound CC(C)=CCn1ccc2c(Oc3ccc(N)cc3)ncnc21 and say whether its IC50 is less than 2000 nM.
FALSE

Take the compound CN(C)c1ccc(Oc2ncnc3c2ccn3CC(C)(C)C)cc1 and say whether its IC50 is less than 2000 nM.
TRUE

Take the compound C=C(C)Cn1ccc2c(Oc3ccc(NC)cc3)ncnc21 and say whether its IC50 is less than 2000 nM.
TRUE

Take the compound CC(C)n1ccc2c(Oc3ccc(N)cc3)nc(N)nc21 and say whether its IC50 is less than 2000 nM.
FALSE

Take the compound C=C(C)Cn1ccc2c(Oc3ccc(N(C)C)cc3)ncnc21 and say whether its IC50 is less than 2000 nM.
TRUE

Take the compound C=C(C)Cn1ccc2c(Oc3ccc(N)cc3)ncnc21 and say whether its IC50 is less than 2000 nM.
TRUE

Take the compound CC(C)n1ccc2c(Oc3ccc(N(C)C)cc3)ncnc21 and say whether its IC50 is less than 2000 nM.
TRUE

Take the compound CC(C)CCn1ccc2c(Oc3ccc(N)cc3)ncnc21 and say whether its IC50 is less than 2000 nM.
FALSE
